// provenance: patent US12037345B2

Recorded log10 IC50, one value per entry.
system: pERK (phospho-p44/42 ERK) in HCC827 cells; test: Cellular pERK Inhibition Assay, Method A (In-Cell Western); format: cell-based; settings: Homo sapiens, Table 20, read-out: pERK (IC50, μM) Method A
Counter-ions that a name gives are not always drawn.
PROPERTY_MEASURED: log10 IC50 (log10 of the value in µM)

1. COCCn1cc2c(Cl)c(-c3c[nH]c4nc(N5[C@H]6CC[C@@H]5[C@H](N)C6)n(C)c(=O)c34)ccc2n1 [Example 178]	-1.15
2. Cn1nc2ccc(-c3n[nH]c4nc(N5[C@@H]6CC[C@H]5C[C@@H](N)C6)n(C)c(=O)c34)c(Cl)c2c1Cl [Example 160, hydrochloride salt]	-0.64
3. Cn1nc2ccc(-c3c[nH]c4nc(N5C[C@H]6CC[C@@H]5[C@@H]6N)n(C)c(=O)c34)c(Cl)c2c1Cl [Example 172]	-1.80
4. Cn1nc2ccc(-c3c[nH]c4nc(N5C[C@H]6CC[C@@H]5[C@@H]6N)n(C)c(=O)c34)c(F)c2c1Cl [Example 174]	-1.68
5. COc1cnc2ccc(-c3c[nH]c4nc(N5[C@H]6CC[C@@H]5[C@H](N)C6)n(C)c(=O)c34)c(Cl)c2n1 [Example 169]	-1.14
6. CC(C)N[C@@H]1C[C@@H]2CC[C@H]1N2c1nc2[nH]nc(-c3ccc4nn(C)c(Cl)c4c3Cl)c2c(=O)n1C [Example 179]	0.32
7. Cn1nc2ccc(-c3c[nH]c4nc(N5[C@H]6CC[C@@H]5[C@@H](F)[C@@H](N)C6)n(C)c(=O)c34)c(Cl)c2c1Cl [Example 163]	-1.92
8. CN[C@H]1C[C@H]2CC[C@@H]1N2c1nc2[nH]cc(-c3ccc4nn(C)cc4c3Cl)c2c(=O)n1C [Example 165]	0.15
9. Cn1nc2ccc(-c3n[nH]c4nc(N5[C@@H]6CC[C@H]5C[C@@](C)(N)C6)n(C)c(=O)c34)c(Cl)c2c1Cl [Example 161]	-0.59
10. CN(C)c1cnc2ccc(-c3c[nH]c4nc(N5[C@H]6CC[C@@H]5[C@H](N)C6)n(C)c(=O)c34)c(Cl)c2n1 [Example 170]	-1.80
11. Cn1nc2ccc(-c3n[nH]c4nc(N5CC[C@H](N)[C@H](F)C5)n(C)c(=O)c34)c(Cl)c2c1Cl [Example 162]	-0.09
12. Cn1c(N2[C@@H]3CC[C@H]2C[C@@H](N)C3)nc2[nH]cc(-c3ccc4nccnc4c3Cl)c2c1=O [Example 176]	-0.18
13. CCN[C@@H]1C[C@@H]2CC[C@H]1N2c1nc2[nH]nc(-c3ccc4nn(C)c(Cl)c4c3Cl)c2c(=O)n1C [Example 177]	0.15
14. Cn1nc2ccc(-c3n[nH]c4nc(N5C[C@H]6CC[C@@H]5[C@@H]6N)n(C)c(=O)c34)c(Cl)c2c1Cl [Example 171]	-1.70

###

target: UniProtKB Q06124; experiment: SHP2 Biochemical Assay (DiFMUP conversion, pIRS1-activated); settings: Table 19; head prints unit as "-M"
Sequence (Q06124 whole entry): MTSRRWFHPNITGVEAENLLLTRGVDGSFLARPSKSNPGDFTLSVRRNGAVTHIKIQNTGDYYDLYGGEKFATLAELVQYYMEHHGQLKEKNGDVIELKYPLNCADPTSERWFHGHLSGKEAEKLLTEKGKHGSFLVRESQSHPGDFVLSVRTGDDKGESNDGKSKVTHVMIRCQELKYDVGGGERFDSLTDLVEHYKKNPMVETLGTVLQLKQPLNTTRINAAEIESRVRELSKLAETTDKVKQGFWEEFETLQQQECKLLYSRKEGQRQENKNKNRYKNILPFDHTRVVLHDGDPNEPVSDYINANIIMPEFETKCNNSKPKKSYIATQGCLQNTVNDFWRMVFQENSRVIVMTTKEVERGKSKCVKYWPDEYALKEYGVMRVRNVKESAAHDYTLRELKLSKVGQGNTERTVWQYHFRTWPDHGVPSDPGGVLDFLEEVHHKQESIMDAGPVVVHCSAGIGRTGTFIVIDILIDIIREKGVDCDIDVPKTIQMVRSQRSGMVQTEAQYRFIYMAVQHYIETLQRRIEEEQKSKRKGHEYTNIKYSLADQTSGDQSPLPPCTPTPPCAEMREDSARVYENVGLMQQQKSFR
pIC50: −log10 of the molar value.
pIC50 vs 8: at or above is condition met, below is condition not met.

1. Cn1cc2c(Cl)c(-c3c[nH]c4nc(N5[C@H]6CC[C@@H]5[C@H](F)[C@H](N)C6)n(C)c(=O)c34)ccc2n1	condition not met
2. Cn1cc2c(Cl)c(-c3c[nH]c4nc(N5[C@@H]6CCNC[C@H]5CC6)n(C)c(=O)c34)ccc2n1 (racemic)	condition not met
3. Cn1cc2c(Cl)c(-c3c[nH]c4nc(N5C[C@H](N)[C@@H](F)C5)n(C)c(=O)c34)ccc2n1	condition not met
4. Cn1cc2c(Cl)c(-c3n[nH]c4nc(N5CCC6(CC5)COC[C@H]6N)n(C)c(=O)c34)ccc2n1	condition not met
5. Cn1nc2ccc(-c3c[nH]c4nc(N5C6CCCC5CNC6)n(C)c(=O)c34)c(Cl)c2c1Cl	condition met
6. Cn1cc2c(Cl)c(-c3c[nH]c4nc(N5[C@H]6CC[C@@H]5[C@@H](F)[C@H](N)C6)n(C)c(=O)c34)ccc2n1	condition not met
